Measured GI50 accompanies every entry in the list below.
system: EKVX NSCLC; assay: NCI tumour cell line growth inhibition, 48 h

The examples below pair each entry with its known result.
>>> result("O=S(=O)(NCCCNc1nccc(-c2c(-c3ccc(F)c(O)c3)nc3sccn23)n1)c1ccc(F)cc1")
"3.1 µM"
>>> result("O=c1cc(N2CCN(CCCCCOc3cc(O)c4c(=O)cc(-c5ccccc5)oc4c3)CC2)c2ccccc2o1")
"> 100 µM"
>>> result("C=C(C)[C@@H]1CC[C@]2(C(=O)O)CC[C@]3(C)[C@H](CC[C@@H]4[C@@]5(C)CCC(NC(=O)c6cccc(OC(C)=O)c6OC(C)=O)C(C)(C)[C@@H]5CC[C@]43C)[C@@H]12 (stereo not given in full)")
"0.918 µM"

Exercise: Find the measured GI50 of `CNC(=S)NC(=O)c1c(Cl)n(C(=O)OC(C)(C)C)c2ccccc12` and report it.
Key: 39.7 µM

Exercise: Using the record for `CCC(=O)Nc1ccccc1C#C/C=C\C#Cc1ccccc1SC` , state its measured GI50.
Key: 7.11 µM

###

tested on: HCT-116 colon; assay: NCI tumour cell line growth inhibition, 48 h
compounds and their reported TGI

Guide cases for TGI, answers given:
>>> result("CS(=O)(=O)CCNCc1ccc(-c2ccc3ncnc(Nc4ccc(OCc5ccccc5)c(Br)c4)c3c2)o1")
"11.8 µM"
>>> result("N#Cc1c(=O)c2ccccc2n2c1[nH]c1ccccc12")
"> 100 µM"
>>> result("COc1cccc(C2c3cc4c(cc3OC(N3CCOCC3)C2C)OCO4)c1OC (stereo not given)")
"15.7 µM"
>>> result("O=C1O[C@H](c2ccccc2)[C@@H]2CC3(CCN12)OCCO3")
"> 100 µM"
>>> result("CC1(C)CC2=C(Sc3ccccc3N2)C(=O)C1C(=O)C(=O)Nc1cccc([N+](=O)[O-])c1 (stereo not given)")
"> 100 µM"
>>> result("NC(N)=NS(=O)(=O)c1ccc(NNc2c3ccccc3nc3c(C(=O)Nc4ccc(S(=O)(=O)N=C(N)N)cc4)cccc23)cc1")
"> 100 µM"

Exercise: Answer with reported TGI of `Cc1cc(C)nc(NS(=O)(=O)c2ccc(NNc3c4ccccc4nc4c(C(=O)Nc5ccc(S(N)(=O)=O)cc5)cccc34)cc2)n1`
Key: > 100 µM

Exercise: Determine from records and report TGI for NC(=O)CCC(Nc1c2ccccc2nc2ccccc12)C(=O)O (stereo not given)
Key: > 100 µM

Exercise: Note down TGI recorded for `c1ccc(N=C(Nc2ccccc2)N2CCCC2)cc1`
Key: > 100 µM

Exercise: Give recorded TGI. `Oc1cc2c3c(c1)CCCN3CCC2`
Key: > 10 µM

###

Each entry below carries its recorded TGI.
tested on: HCC-2998 colon; assay: NCI tumour cell line growth inhibition, 48 h

// below: answered molecules
>>> result("COc1cc(C2SCC(=O)N2c2ccc(-n3c(-c4ccccc4)nc4ccccc4c3=O)cc2)cc(OC)c1OC (stereo not drawn)")
"> 100 µM"
>>> result("C=C1C(=O)O[C@H]2[C@H]1CC/C(COC(=O)C(=O)c1cn(C)c3ccc(Cl)cc13)=C\\CC[C@@]1(C)O[C@@H]21")
"3.52 µM"
>>> result("COc1cc2cc3c4cc(OC)c(OC)cc4cc[n+]3cc2cc1OC")
"> 100 µM"
>>> result("Cc1cc(=O)oc2c(C)c(O)ccc12")
"> 100 µM"
>>> result("O=[N+]([O-])c1ccc(N=Nc2c(O)ccc3ccccc23)c([N+](=O)[O-])c1")
"> 100 µM"

Exercise: Fill in TGI for record CC(=O)[CH-]C(=O)c1ccccc1.CC(=O)[CH-]C(=O)c1ccccc1.CC(C)CCCC(C)[C@H]1CCC2[C@@H]3CC=C4C[C@@H]([O-])CC[C@]4(C)C3CC[C@@]21C.CC(C)CCCC(C)[C@H]1CCC2[C@@H]3CC=C4C[C@@H]([O-])CC[C@]4(C)C3CC[C@@]21C.[Ti+4] (stereo partly drawn)
Key: > 100 µM

Exercise: Answer with the recorded TGI for the molecule listed here: `O=C(c1c(F)c(F)c(F)c(F)c1F)N1CCN(C(=O)c2c(F)c(F)c(F)c(F)c2F)C1=S`
Key: 22.7 µM

Exercise: Please give the documented TGI of `CN1CC(=O)N(C)c2ncn(Cc3ccccc3)c2C1=O`
Key: > 100 µM

###

system: SF-268 CNS; assay: NCI tumour cell line growth inhibition, 48 h
Measured TGI, listed per entry.

>>> result("Cc1ccc(NC2=C(Cl)C(=O)N(Cc3ccc(Cl)cc3)C2=O)cc1O")
"21.2 µM"

Exercise: Name the recorded TGI of the item `CCCCCCc1ccc(C(=O)NO)cc1` in your answer.
Key: > 100 µM

Exercise: Tell me its TGI given `O=C1C=CC(=O)C12CCc1ccccc12` as the entry.
Key: > 100 µM

###

tested on: OVCAR-3 ovarian; assay: NCI tumour cell line growth inhibition, 48 h; in the data active = GI50 below about 0.43 µM; inactive = the rest
Returns: one label drawn from t = active, f = inactive

Please review the entries below; each comes with its answer.
>>> cat("COc1cc(N2CCC(N3CCN(C)CC3)CC2)ccc1Nc1ncnc(Nc2ccccc2S(=O)(=O)C(C)C)n1")
"f"
>>> cat("Cc1nc2sc(C(=O)Nc3cccc4ccccc34)c(N)c2cc1C(O)c1ccccc1 (centres undefined)")
"t"
>>> cat("c1cc(N2CCCN(c3ccc(C4=NCCCN4)cc3)CC2)ccc1C1=NCCCN1")
"f"
>>> cat("C/C(=N\\Nc1cc(C)c2ccccc2n1)c1ccccn1")
"t"
>>> cat("C[C@]12CC[C@@H]3c4cc(-c5ccc(F)cc5)c(O)cc4CC[C@H]3[C@@H]1CC[C@@H]2O")
"f"

Exercise: Per the records of this test, what outcome belongs to `CC(C)[O-].CC(C)[O-].O=C1C=C([O-])C(=O)c2ccccc21.O=C1C=C([O-])C(=O)c2ccccc21.[Ti+4]` ?
Key: f

Exercise: // outcome(item) with item = `COc1ccc(-c2cc(-c3ccc(Cl)cc3)nc(SCCCC(=O)NO)n2)cc1`
Key: t

Exercise: Recorded test outcome, item `O=C1CC(=O)N(C(=O)c2nn(-c3ccc(Cl)cc3)cc2O)N1`
Key: f

Exercise: Any idea what this test logged for `COc1cccc(/C=C/[N+](=O)[O-])c1` ?
Key: f

Exercise: Test call, this molecule: `CC(=O)N1C/C(=C/c2ccc(Cl)cc2)C(=O)/C(=C/c2ccc(Cl)cc2)C1`
Key: f

Exercise: For this molecule, state the assay outcome: N#CC1=C(N)Oc2c(ccc3ccccc23)C1c1ccccc1 (centres undefined)
Key: t

Exercise: Field: outcome | Entry: `CC(C)C[C@H](NC(=O)Cn1ccc(NCc2ccccc2)cc1=O)B(O)O`
Key: f

Exercise: GET /call?item= `CNC(=S)NC(=O)c1c(Cl)n(C(=O)OC(C)(C)C)c2ccccc12` returns the recorded outcome of this test.
Key: f

Exercise: Identify the outcome logged in this assay for the molecule shown: `O=C(O)c1ccc(Oc2nccc(-c3c(-c4ccc(F)cc4)ncn3C3CCNCC3)n2)cc1`
Key: f

###

tested on: MOLT-4 leukemia; assay: NCI tumour cell line growth inhibition, 48 h
Readings of TGI for the listed compounds

These recorded examples may help you get a feel for the data.
>>> result("CCOC(=O)NC1C2CC(=O)OC(O2)C1OC(C)=O (centres undefined)")
"> 100 µM"
>>> result("Cc1c(CCN2CCOCC2)c(N2CCOCC2)n2c(nc3ccccc32)c1C#N")
"> 10 µM"

Exercise: Entry `CC(C)(C)CC(C)(C)c1cc2c(O)c(c1)Cc1cc(C(C)(C)CC(C)(C)C)cc(c1O)Cc1cc(C(C)(C)CC(C)(C)C)cc(c1O)Cc1cc(C(C)(C)CC(C)(C)C)cc(c1O)Cc1cc(C(C)(C)CC(C)(C)C)cc(c1O)C2` needs its TGI filled in; supply it.
Key: > 100 µM

Exercise: Give the reported value of TGI for this record: `COc1ccc(/C(COc2ccc3c(=O)c(-c4ccccc4)coc3c2)=N\O)cc1`
Key: > 100 µM

###

system: TK-10 renal; experiment: NCI tumour cell line growth inhibition, 48 h
Quantity Measured: TGI

Consider the following illustrative entries.
>>> result("COc1cc(-c2ccc(-c3ccc(C(=N)N)nc3)s2)cc(OC)c1OC")
"9.35 µM"
>>> result("O=C(O)C1CCCCC1C(=O)Nn1cnnc1 (centres undefined)")
"> 100 µM"
>>> result("CC1=CC[C@H](C(C)C)C(C(O)[C@@H](C)O[Si](c2ccccc2)(c2ccccc2)C(C)(C)C)C1=O (some centres undefined)")
"31.7 µM"
>>> result("Nc1nc2c(c(=O)[nH]1)C(c1ccccc1)CC(=O)N2 (centres undefined)")
"> 100 µM"
>>> result("O=C1O[C@H](c2ccccc2)[C@@H]2CC3(CCN12)OCCO3")
"> 100 µM"
>>> result("C=C(C)[C@@H]1CC[C@]2(C(=O)O)CC[C@]3(C)[C@H](CC[C@@H]4[C@@]5(C)CCC(NC(=O)c6cccc(OC(C)=O)c6OC(C)=O)C(C)(C)[C@@H]5CC[C@]43C)[C@@H]12 (some centres undefined)")
"> 100 µM"
>>> result("COc1cc(S(=O)(=O)Nc2nc(-c3ccc(N4C(=O)/C(=C/C=C/c5ccccc5)N=C4c4ccccc4)cc3)cs2)ccc1Cl")
"> 100 µM"
>>> result("CC(=O)OC1CCn2nnc(CO)c21 (centres undefined)")
"> 100 µM"

Now for a further molecule.
Exercise: Provide only the value of recorded TGI for `C1CCCCC2(CCCCCCCCC3(CCC1)OCCO3)OCCO2`
Key: > 100 µM
